target: TAOK3 (Homo sapiens, UniProt Q9H2K8)
Sequence (Q9H2K8 1-898): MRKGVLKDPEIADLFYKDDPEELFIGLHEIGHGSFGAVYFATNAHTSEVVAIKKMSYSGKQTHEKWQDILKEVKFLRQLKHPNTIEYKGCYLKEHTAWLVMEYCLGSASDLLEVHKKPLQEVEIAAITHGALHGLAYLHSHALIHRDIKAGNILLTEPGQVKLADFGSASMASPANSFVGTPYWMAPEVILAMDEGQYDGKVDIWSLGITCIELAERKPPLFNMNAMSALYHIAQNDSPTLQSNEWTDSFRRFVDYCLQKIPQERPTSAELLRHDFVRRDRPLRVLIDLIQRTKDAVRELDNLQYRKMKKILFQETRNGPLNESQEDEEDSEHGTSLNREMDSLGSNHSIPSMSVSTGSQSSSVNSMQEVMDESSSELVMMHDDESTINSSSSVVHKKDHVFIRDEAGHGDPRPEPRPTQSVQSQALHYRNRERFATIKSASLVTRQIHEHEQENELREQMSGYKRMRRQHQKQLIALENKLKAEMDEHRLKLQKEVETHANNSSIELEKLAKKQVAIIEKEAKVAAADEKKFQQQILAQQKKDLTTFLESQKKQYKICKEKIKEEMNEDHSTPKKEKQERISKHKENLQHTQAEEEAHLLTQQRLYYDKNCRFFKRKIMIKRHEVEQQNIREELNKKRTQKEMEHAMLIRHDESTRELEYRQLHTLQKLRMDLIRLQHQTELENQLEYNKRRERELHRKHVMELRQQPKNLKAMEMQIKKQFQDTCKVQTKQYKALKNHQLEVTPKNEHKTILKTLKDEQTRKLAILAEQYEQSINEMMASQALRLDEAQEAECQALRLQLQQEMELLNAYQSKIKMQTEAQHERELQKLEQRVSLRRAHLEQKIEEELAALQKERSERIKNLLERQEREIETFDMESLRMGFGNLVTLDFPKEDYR
test: Kinase panel (mobility shift)
Format: biochemical
Give measured inhibition at 5 µM for each item. Keep answers brief.

Query block: Given the molecule CNC(=O)c1cc(Oc2ccc(NC(=O)c3nc(SC)oc3-c3ccc(OC)cc3)cc2)ccn1 , what is its reported inhibition at 5 µM?
Result block: < 50%

Query block: Given the molecule CSc1nc(C(=O)Nc2ccc(Oc3ccnc(C(=O)NC4CNC4)c3)c(F)c2)c(-c2ccc(F)cc2)o1 , what is its reported inhibition at 5 µM?
Result block: 50 to 79%

Query block: Given the molecule CNC(=O)c1cc(Oc2ccc(NC(=O)c3nc(NC)oc3-c3ccc(F)s3)cc2F)ccn1 , what is its reported inhibition at 5 µM?
Result block: < 50%

Query block: Given the molecule CSc1nc(C(=O)Nc2ccc(Oc3cc4cnn(C)c4cc3Br)c(F)c2)c(-c2ccc(F)cc2)o1 , what is its reported inhibition at 5 µM?
Result block: < 50%

====

target: KIT (Homo sapiens, UniProt P10721)
Sequence (P10721 26-976, species assumed): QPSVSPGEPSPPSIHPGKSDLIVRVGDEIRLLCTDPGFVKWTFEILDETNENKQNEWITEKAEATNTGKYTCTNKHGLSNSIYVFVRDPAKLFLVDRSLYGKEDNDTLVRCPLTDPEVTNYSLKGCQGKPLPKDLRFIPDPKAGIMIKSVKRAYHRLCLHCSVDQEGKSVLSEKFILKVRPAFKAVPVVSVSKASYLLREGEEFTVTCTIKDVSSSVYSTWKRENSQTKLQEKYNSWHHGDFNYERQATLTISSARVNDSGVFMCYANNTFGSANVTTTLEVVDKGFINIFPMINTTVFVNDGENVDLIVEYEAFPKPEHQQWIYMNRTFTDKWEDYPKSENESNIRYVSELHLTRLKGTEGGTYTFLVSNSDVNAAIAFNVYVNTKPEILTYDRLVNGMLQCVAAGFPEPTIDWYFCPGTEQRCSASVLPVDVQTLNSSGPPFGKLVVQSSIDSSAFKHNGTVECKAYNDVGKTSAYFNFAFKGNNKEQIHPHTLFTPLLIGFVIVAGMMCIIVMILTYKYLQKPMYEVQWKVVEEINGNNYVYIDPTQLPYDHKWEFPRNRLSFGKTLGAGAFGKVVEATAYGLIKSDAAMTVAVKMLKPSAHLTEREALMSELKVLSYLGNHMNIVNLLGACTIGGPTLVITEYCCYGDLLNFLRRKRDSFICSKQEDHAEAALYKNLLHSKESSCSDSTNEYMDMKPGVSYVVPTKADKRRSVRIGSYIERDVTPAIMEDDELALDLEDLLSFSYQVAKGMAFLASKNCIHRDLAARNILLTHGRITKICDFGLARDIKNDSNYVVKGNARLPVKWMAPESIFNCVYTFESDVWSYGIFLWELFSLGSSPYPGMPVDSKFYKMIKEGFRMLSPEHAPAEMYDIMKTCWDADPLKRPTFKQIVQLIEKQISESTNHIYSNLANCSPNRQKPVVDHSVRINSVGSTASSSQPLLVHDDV
test: Kinase panel (mobility shift)
Assay type: biochemical
property.name: inhibition at 5 µM

Query block: Given the compound CNC(=O)c1cc(Oc2ccc(NC(=O)c3nc(C4CC4)oc3-c3ccc(F)cc3)cc2F)ccn1 , what is its reported inhibition at 5 µM?
Result block: 50 to 79%

Query block: Given the compound CNC(=O)c1cc(Oc2ccc(NC(=O)c3nc(SC)oc3-c3ccc(F)cc3F)cc2F)ccn1 , what is its reported inhibition at 5 µM?
Result block: 50 to 79%

Query block: Given the compound CSc1nc(C(=O)Nc2ccc(Oc3ccnc(C(=O)NC4COC4)c3)c(F)c2)c(-c2ccc(F)cc2)o1 , what is its reported inhibition at 5 µM?
Result block: < 50%

Query block: Given the compound CNC(=O)c1cc(Oc2ccc(NC(=O)c3nc(SC)oc3-c3ccc(F)s3)cc2F)ccn1 , what is its reported inhibition at 5 µM?
Result block: < 50%

Query block: Given the compound CSc1nc(C(=O)Nc2ccc(Oc3ccnc(C(=O)NC4CCN(C)CC4)c3)c(F)c2)c(-c2ccc(F)cc2)o1 , what is its reported inhibition at 5 µM?
Result block: < 50%

Query block: Given the compound CNC(=O)c1cc(Oc2ccc(NC(=O)c3nc(SC)oc3-c3ccc(F)cc3F)cc2)ccn1 , what is its reported inhibition at 5 µM?
Result block: 80 to 89%

Query block: Given the compound CNC(=O)c1cc(Oc2ccc(NC(=O)c3nc(SC)oc3-c3ccc(OC)cc3)cc2)ccn1 , what is its reported inhibition at 5 µM?
Result block: < 50%
